The measured values listed here are drawn from patent US11667602B2.

# Tgt: human RXFP1 (Homo sapiens, UniProt Q9HBX9)
# Sequence (Q9HBX9 whole entry): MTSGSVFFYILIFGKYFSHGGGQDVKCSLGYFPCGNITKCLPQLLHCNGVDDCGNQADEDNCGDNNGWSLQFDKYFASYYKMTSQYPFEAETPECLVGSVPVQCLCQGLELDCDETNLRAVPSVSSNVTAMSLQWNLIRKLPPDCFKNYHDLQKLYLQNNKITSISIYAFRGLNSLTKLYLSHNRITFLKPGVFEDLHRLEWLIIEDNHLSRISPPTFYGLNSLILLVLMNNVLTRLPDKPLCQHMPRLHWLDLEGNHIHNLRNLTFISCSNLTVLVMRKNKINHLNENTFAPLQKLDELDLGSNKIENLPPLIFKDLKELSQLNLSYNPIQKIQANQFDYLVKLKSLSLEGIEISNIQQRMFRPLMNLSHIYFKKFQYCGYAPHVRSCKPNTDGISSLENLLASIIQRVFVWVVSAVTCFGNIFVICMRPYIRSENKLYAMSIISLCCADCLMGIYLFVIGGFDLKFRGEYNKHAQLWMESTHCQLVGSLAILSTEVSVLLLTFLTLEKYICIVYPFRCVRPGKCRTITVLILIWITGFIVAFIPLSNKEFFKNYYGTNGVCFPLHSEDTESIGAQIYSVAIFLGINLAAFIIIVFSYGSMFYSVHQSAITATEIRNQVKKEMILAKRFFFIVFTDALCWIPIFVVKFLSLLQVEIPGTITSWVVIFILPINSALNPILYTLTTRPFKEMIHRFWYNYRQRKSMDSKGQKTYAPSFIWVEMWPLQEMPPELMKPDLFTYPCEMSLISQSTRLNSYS
# Protocol Summary: RXFP1 Hu cAMP (Test A)
# Assay type: cell-based
# Parameters: expressed in transfected cells; host or cells: Jump-In T-REx CHO-K1 cells (ThermoFisher), induced with 10 ng/ml doxycycline for 24 h
# Experimental Setup: RXFP1 Hu cAMP; read-out: Test A EC50
Assay Endpoint: EC50 (nM)

Previously resolved entries follow.
Compound: COc1cc(F)c(O[C@H]2CC[C@@](C)(C(=O)O)CC2)cc1C(=O)N[C@@H]1[C@H]2CC[C@H](C2)[C@@H]1C(=O)NCC1(C)CCCCC1 [Example 44]
Tgt: human RXFP1 (Homo sapiens, UniProt Q9HBX9)
Assay Endpoint: EC50
Unit Info: nM
Test Value: 16

Compound: COc1cc(C#N)c(O[C@H]2CC[C@@](C)(C(=O)O)CC2)cc1C(=O)N[C@@H]1[C@H]2CC[C@H](C2)[C@@H]1C(=O)NC12CC3C[C@H](C1)C[C@H](C3)C2 [Example 81]
Tgt: human RXFP1 (Homo sapiens, UniProt Q9HBX9)
Assay Endpoint: EC50
Unit Info: nM
Test Value: 31

[A] COc1cc(C#N)c(O[C@H]2CC[C@@](C)(C(=O)O)CC2)cc1C(=O)N[C@@H]1[C@H]2CC[C@H](C2)[C@@H]1C(=O)NCC1(F)CCOCC1 [Example 110]
[B] Cn1ncc2c(O[C@H]3CC[C@@](C)(C(=O)O)CC3)cc(C(=O)N[C@@H]3[C@H]4CC[C@H](C4)[C@@H]3C(=O)NCC3(C)CCC3)cc21 [Example 379]
[Q] Which shows the larger EC50 value: A or B ? Kindly state the label of the option you pick.
[A] A
(A: 740 nM, B: 480 nM)

[P] COc1cc(F)c(O[C@H]2CC[C@@H](C(=O)O)CC2)cc1C(=O)N[C@@H]1[C@H]2CC[C@H](C2)[C@@H]1C(=O)Nc1ccc(Br)c(C(F)(F)F)c1 [Example 23]
[Q] COc1cc(F)c(O[C@H]2CC[C@@](C)(C(=O)O)CC2)cc1C(=O)N[C@@H]1[C@H]2CC[C@H](C2)[C@@H]1C(=O)N[C@H]1CCN(S(=O)(=O)C(F)(F)F)C1 [Example 606]
[R] COc1cc(F)c(-c2cccc(C(=O)O)c2)cc1C(=O)N[C@H]1[C@@H](C(=O)Nc2ccc(F)c(S(=O)(=O)C(F)(F)F)c2)[C@@H]2C=C[C@H]1C2 (racemic) [Example 297]
[S] COc1cc(C#N)c(O[C@H]2CC[C@@](C)(C(=O)O)CC2)cc1C(=O)N[C@@H]1[C@H]2CC[C@H](C2)[C@@H]1C(=O)NC[C@H](C)c1ccccc1 [Example 118]
[Q] Task for the reader: rank each entry by its EC50, from the minimum upward. Returns: the labels arranged in the requested order.
[A] P, S, R, Q

* * *

# Protocol Summary: Human Hepatocyte Stability (Test D)
# Assay type: in vitro ADME
# Experimental Setup: human, cryopreserved pooled human hepatocytes (LiverPool 10-Donor), geometric mean if run multiple times
Assay Endpoint: hepatocyte CLint at 1 µM (µL/min/1e6 cells)

Compound: COc1cc(F)c(O[C@H]2CC[C@@H](C(=O)O)CC2)cc1C(=O)NC1=C(C(=O)Nc2ccc(F)c(C(F)(F)F)c2)CCC1 [Example 214]
Unit Info: µL/min/1e6 cells
hepatocyte CLint at 1 µM: 2.3

Compound: COc1cc(F)c(-c2ncc(CCC(=O)O)cn2)cc1C(=O)N[C@@H]1[C@H]2CC[C@H](C2)[C@@H]1C(=O)Nc1cccc(S(=O)(=O)C(F)(F)F)c1 [Example 323]
Unit Info: µL/min/1e6 cells
hepatocyte CLint at 1 µM: 16

Compound: COc1cc(C#N)c(O[C@H]2CC[C@@](C)(C(=O)O)CC2)cc1C(=O)N[C@@H]1[C@H]2CC[C@H](C2)[C@@H]1C(=O)NCC1(C)CC1 [Example 98]
Unit Info: µL/min/1e6 cells
hepatocyte CLint at 1 µM: 4.9

Compound: COc1cc(Cl)c(O[C@H]2CC[C@@](C)(C(=O)O)CC2)cc1C(=O)N[C@@H]1[C@H]2CC[C@H](C2)[C@@H]1C(=O)NCC1(C)CCC1 [Example 392]
Unit Info: µL/min/1e6 cells
hepatocyte CLint at 1 µM: 4.7

[A] CCc1cc(OC)c(C(=O)N[C@@H]2[C@H]3CC[C@H](C3)[C@@H]2C(=O)NCC2(C)CCC2)cc1O[C@H]1CC[C@@](C)(C(=O)O)CC1 [Example 376]
[B] COc1cc(F)c(O[C@H]2CC[C@@](C)(C(=O)O)CC2)cc1C(=O)N[C@@H]1[C@H]2CC[C@H](C2)[C@@H]1C(=O)N[C@H](C)C1(C)CC1 (racemic) [Example 39]
[Q] Which shows the larger hepatocyte CLint at 1 µM value: A or B ? Kindly state the label of the option you pick.
[A] B

* * *

# Tgt: human RXFP1 (Homo sapiens, UniProt Q9HBX9)
# Protocol Summary: RXFP1 Hu cAMP (Test A)
# Type: cell-based
# Parameters: expressed in transfected cells; host or cells: Jump-In T-REx CHO-K1 cells (ThermoFisher), induced with 10 ng/ml doxycycline for 24 h
# Experimental Setup: RXFP1 Hu cAMP
Assay Endpoint: Test A Sinf (%)

Compound: COc1cc(C#N)c(O[C@H]2CC[C@@](C)(C(=O)O)CC2)cc1C(=O)N[C@@H]1[C@@H]2CC[C@@H](C2)[C@@H]1C(=O)NCC(C)(C)C(F)(F)F [Example 502]
Tgt: human RXFP1 (Homo sapiens, UniProt Q9HBX9)
Test A Sinf / %: 106

Compound: COc1cc(F)c(O[C@H]2CC[C@@](C)(C(=O)O)CC2)cc1C(=O)Nc1ccc(C)cc1C(=O)NCC1(C)CCC1 [Example 216]
Tgt: human RXFP1 (Homo sapiens, UniProt Q9HBX9)
Test A Sinf / %: 132

Compound: COc1cc(F)c(O[C@H]2CC[C@@H](C(=O)O)CC2)cc1C(=O)N[C@@H]1[C@H]2CC[C@H](C2)[C@@H]1C(=O)Nc1ccnc(C(F)(F)F)c1 [Example 12]
Tgt: human RXFP1 (Homo sapiens, UniProt Q9HBX9)
Test A Sinf / %: 107

Compound: COc1cc(C#N)c(O[C@H]2CC[C@@](C)(C(=O)O)CC2)cc1C(=O)Nc1cc(Cl)ccc1C(=O)N[C@H](C)C(C)(C)F [Example 162]
Tgt: human RXFP1 (Homo sapiens, UniProt Q9HBX9)
Test A Sinf / %: 107

[I] COc1cc(F)c(O[C@H]2CC[C@@H](C(=O)O)CC2)cc1C(=O)N[C@@H]1[C@H]2CC[C@H](C2)[C@@H]1C(=O)NC12CC(C1)C2 [Example 178]
[II] COc1cc(F)c([C@H]2CC[C@H](C(=O)O)CC2)cc1C(=O)N[C@@H]1[C@H]2CC[C@H](C2)[C@@H]1C(=O)Nc1cccc(S(=O)(=O)C(F)(F)F)c1 [Example 269]
[Q] Given the two records I and II , choose the one whose Test A Sinf value is lower. Kindly state the label of the option you pick.
[A] II
(II: 44%, I: 95%)

* * *

# Protocol Summary: Solubility (Test F)
# Assay type: physicochemical
# Experimental Setup: arithmetic mean if run multiple times
Assay Endpoint: solubility (µM)

Compound: COc1cc(C#N)c(O[C@H]2CC[C@@](C)(C(=O)O)CC2)cc1C(=O)N[C@@H]1[C@H]2CC[C@H](C2)[C@@H]1C(=O)NCC1(C(C)C)CC1
solubility [µM]: 820

Compound: COc1cc(C#N)c(O[C@H]2CC[C@@](C)(C(=O)O)CC2)cc1C(=O)N[C@@H]1[C@H]2CC[C@H](C2)[C@@H]1C(=O)NCC1CCC(C#N)CC1 (stereo partly drawn)
solubility [µM]: 1000

* * *

# Protocol Summary: Human Liver Microsomal Stability (Test C)
# Format: in vitro ADME
# Experimental Setup: human, liver microsomes
Assay Endpoint: microsomal CLint (µL/min/mg)

Molecule: O=C(N[C@@H]1[C@H]2CC[C@H](C2)[C@@H]1C(=O)Nc1cccc(S(=O)(=O)C(F)(F)F)c1)c1cc(O[C@H]2CC[C@@H](C(=O)O)CC2)c(F)cc1F [Example 430]
Test Value: 61
//
Molecule: COc1c(Cl)cc(O[C@H]2CC[C@@](C)(C(=O)O)CC2)cc1C(=O)N[C@@H]1[C@H]2CC[C@H](C2)[C@@H]1C(=O)NCC1(C)CCC1 [Example 403]
Test Value: 81

[I] COc1cc(F)c(-c2ccc(C(=O)O)cc2)cc1C(=O)N[C@H]1[C@@H](C(=O)Nc2ccc(F)c(S(=O)(=O)C(F)(F)F)c2)[C@@H]2C=C[C@H]1C2 (racemic) [Example 296]
[II] COc1cc(C#N)c(O[C@H]2CC[C@@](C)(C(=O)O)CC2)cc1C(=O)N[C@@H]1[C@H]2CC[C@H](C2)[C@@H]1C(=O)NCC1(C(C)C)CC1 [Example 78]
[III] COc1cc(F)c(O[C@H]2CC[C@@](C)(C(=O)O)CC2)cc1C(=O)N[C@@H]1[C@H]2CC[C@H](C2)[C@@H]1C(=O)N[C@H](C)C1(C)CC1 (racemic) [Example 39]
[Q] Task for the reader: rank each entry by its microsomal CLint, from the minimum upward. Returns: the labels arranged in the requested order.
[A] I, III, II
